biological target: N-acyl-phosphatidylethanolamine-hydrolyzing phospholipase D (Homo sapiens); assay: Inhibition of full length human NAPE-PLD expressed in HEK293T cell lysate using PED6 as substrate preincubated for 30 mins followed by substrate addition and measured at 2 mins interval for 1 hr by tecan-plate reader analysis; format: subcellular
Sequence (Q6IQ20 whole entry): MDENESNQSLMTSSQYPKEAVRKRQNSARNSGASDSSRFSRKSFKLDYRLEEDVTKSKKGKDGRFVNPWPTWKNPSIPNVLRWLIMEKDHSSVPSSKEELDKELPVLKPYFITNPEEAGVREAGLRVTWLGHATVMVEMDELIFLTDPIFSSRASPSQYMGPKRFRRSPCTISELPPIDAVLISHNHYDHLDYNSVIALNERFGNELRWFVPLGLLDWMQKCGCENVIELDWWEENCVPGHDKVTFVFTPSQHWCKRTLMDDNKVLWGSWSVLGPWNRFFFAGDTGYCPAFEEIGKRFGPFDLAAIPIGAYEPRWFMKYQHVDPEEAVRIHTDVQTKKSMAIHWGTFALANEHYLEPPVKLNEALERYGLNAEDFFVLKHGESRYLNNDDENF
READOUT KIND: IC50 (µM)

[[record]]
chemical_structure = "COCCNC(=O)c1cc(N2CCOCC2)nc(N(C)CCc2ccccc2)n1"
readout_kind = "IC50"
units_symbol = "µM"
measured_number = 11

[[record]]
chemical_structure = "CN(CCc1ccccc1)c1nc(NC(=O)CC2CC2)cc(N2CCOCC2)n1"
readout_kind = "IC50"
units_symbol = "µM"
measured_number = 7.59


a. CN(CCc1ccccc1)c1nc(C(=O)NCc2nccs2)cc(N2CCOCC2)n1
b. CN(CCc1ccccc1)c1nc(C(=O)NCC(C)(C)C)cc(N2CCOCC2)n1
c. CN(CCc1ccccc1)c1nc(C(=O)NCC2CC2)cc(N2CCOCC2)n1
Arrange items by their IC50 values in increasing order. Field: ranking. Enter the labels in the order requested.
c, b, a

Hey, just so you know, these numbers are from ChEMBL document CHEMBL4706644.
